- Tested on: RAW-Dual (murine macrophage reporter line)
- EXPERIMENT_DESCRIPTION: IRF reporter (Lucia luciferase) activity fold change vs agonist alone; higher = enhanced IRF activity
- TEST_SETTINGS: modulator concentration 10 µM; agonist: LPS 0.1 ug/mL
Binary call on IRF reporter: 1 from 1 upward, 0 beneath that.

[
  {
    "COMPOUND": "CN(C)CCC=C1c2ccccc2Sc2ccc(Cl)cc21.Cl",
    "CLASSIFICATION": 1
  },
  {
    "COMPOUND": "Cc1ccc(-c2cc(C(F)(F)F)nn2-c2ccc(S(N)(=O)=O)cc2)cc1",
    "CLASSIFICATION": 0
  },
  {
    "COMPOUND": "COc1ccc(-c2cc(C(F)(F)F)n3nc(C(=O)Nc4cc(OC)c(OC)c(OC)c4)c(Cl)c3n2)cc1OC",
    "CLASSIFICATION": 1
  },
  {
    "COMPOUND": "CNCCCC12CCC(c3ccccc31)c1ccccc12.Cl",
    "CLASSIFICATION": 1
  }
]

In: Given the entry `Cc1c(OCc2ccc(Cl)cc2)ccc2c(C(F)(F)F)cc(=O)oc12` , answer whether its IRF reporter meets or surpasses 1.
Out: 1

In: Given the entry `CC(C)(C)n1cnc2cc(N=Cc3ccc(Cl)cc3)ccc21` , answer whether its IRF reporter meets or surpasses 1.
Out: 0

---

Collected NF-kB reporter values appear next to each entry.
- Tested on: RAW-Dual (murine macrophage reporter line)
- EXPERIMENT_DESCRIPTION: NF-kB reporter (SEAP) activity fold change vs agonist alone; higher = enhanced NF-kB activity
- TEST_SETTINGS: modulator concentration 10 µM; agonist: LPS 0.1 ug/mL
Write the value as a bare number.

Here are 4 compounds together with their reported answers.
[
  {
    "COMPOUND": "CCOc1cc(C=C2SC(=S)N(CCS(=O)(=O)O)C2=O)ccc1O",
    "REPORTED_RESULT": 1.04
  },
  {
    "COMPOUND": "O=C(Nc1ccccn1)c1ccc(OCC2CCCO2)nc1 (configuration not stated)",
    "REPORTED_RESULT": 1.02
  },
  {
    "COMPOUND": "CCS(=O)(=O)c1ccc(-c2cccc(NC(=O)CC3CCCC3)c2)nn1",
    "REPORTED_RESULT": 0.932
  },
  {
    "COMPOUND": "COc1ccc(C(=O)C=Cc2cc(OC)c(OC)cc2OC)c(OC)c1",
    "REPORTED_RESULT": 0.902
  }
]

compound `C=CCn1c(S)nnc1-c1cc(OC)c(OC)c(OC)c1` , NF-kB reporter observed: 1.05

compound `Cc1cc(=O)nc(SCCc2ccccc2)[nH]1` , NF-kB reporter observed: 1.27

compound `CCn1c2ccccc2c2cc(CNCCc3ccccc3)ccc21` , NF-kB reporter observed: 0.534

compound C=C1CCC(OC(C)=O)C(C)=CCC2C1CC2(C)C (configuration not stated) , NF-kB reporter observed: 0.776

compound `Nc1ccn([C@H]2CC[C@@H](CO)O2)c(=O)n1` , NF-kB reporter observed: 1.1

---

- Test system: RAW-Dual (murine macrophage reporter line)
- EXPERIMENT_DESCRIPTION: IRF reporter (Lucia luciferase) activity fold change vs agonist alone; higher = enhanced IRF activity
- TEST_SETTINGS: modulator concentration 10 µM; agonist: MPLA […]
PARAMETER_MEASURED: IRF reporter
Write the value as a bare number.

[
  {
    "MOLECULE": "Cc1cn[nH]c1",
    "PARAMETER_MEASURED": "IRF reporter",
    "REPORTED_RESULT": 2.85
  },
  {
    "MOLECULE": "CCOC(=O)c1c(N)sc(C(=O)N2CCCC(C(N)=O)C2)c1C (configuration not stated)",
    "PARAMETER_MEASURED": "IRF reporter",
    "REPORTED_RESULT": 1.79
  },
  {
    "MOLECULE": "CCOC(=O)C1=CC2(CC)CCCN3CCc4c(n1c1ccccc41)C32 (configuration not stated)",
    "PARAMETER_MEASURED": "IRF reporter",
    "REPORTED_RESULT": 1.4
  },
  {
    "MOLECULE": "Ic1ccc(N=Cc2ccc(C=Nc3ccc(I)cc3)cc2)cc1",
    "PARAMETER_MEASURED": "IRF reporter",
    "REPORTED_RESULT": 1.44
  },
  {
    "MOLECULE": "COCCCNC(=O)C1CCCN(c2ccc(Sc3ccc(Br)cc3)nn2)C1 (configuration not stated)",
    "PARAMETER_MEASURED": "IRF reporter",
    "REPORTED_RESULT": 0.779
  }
]

Consider now this further molecule.
molecule `CCC(=O)Nc1ccc(N2CCCCC2)c(Cl)c1` , IRF reporter observed: 1.38
